Measured GI50 accompanies every entry in the list below.
system: RPMI-8226; experiment: NCI tumour cell line growth inhibition, 48 h
The source made the active and inactive calls. Rule as the data show it: active = GI50 up to about 1.1 µM and inactive = higher.

See these solved cases before continuing.
>>> print(df.to_string())
                                   compound  experimental_system               result
0  O=C1c2ccccc2C2(O)N(c3ccccc3)C(=S)N(c3ccccc3)C12O (stereo unspecified)            RPMI-8226  > 100 µM (inactive)
1  Cc1cc2[nH]c3c(C#N)c(-c4ccccc4)c(/N=N/c4ccc(F)cc4)c(=O)n3c2cc1C            RPMI-8226  > 100 µM (inactive)
2                CC(C)(C)OC(=O)c1cnc(Cl)cn1            RPMI-8226   23.7 µM (inactive)
3  COc1ccc2c(c1)[C@@H]1c3cc(OC)c(OC)cc3CCN1CCC2            RPMI-8226   54.8 µM (inactive)
4                    Cn1nc(N)nc1N=S(C)(C)=N            RPMI-8226  > 100 µM (inactive)

Please provide the recorded GI50 for Oc1ccccc1C(c1cc2c(cc1O)OCO2)N1CCOCC1 (stereo unspecified) , tested on RPMI-8226.
12.8 µM (inactive)

Please provide the recorded GI50 for `O=C1C=C/C(=N/c2ccccc2)c2ccccc21` , tested on RPMI-8226.
12.8 µM (inactive)

Please provide the recorded GI50 for `O=C(Oc1cccc2cccnc12)c1cc2cc(CCl)ccc2oc1=O` , tested on RPMI-8226.
4.94 µM (inactive)

Ref: ChEMBL document CHEMBL1201862
